Values compiled from patent US7122558B2.

- TEST_TARGET: human muscarinic receptors M3 (Homo sapiens, UniProt P20309)
- Construct: expressed in transfected cells; host or cells: CHO-K1 (chinese hamster ovary-K1), stably transfected; membrane preparations
- Sequence (P20309 whole entry): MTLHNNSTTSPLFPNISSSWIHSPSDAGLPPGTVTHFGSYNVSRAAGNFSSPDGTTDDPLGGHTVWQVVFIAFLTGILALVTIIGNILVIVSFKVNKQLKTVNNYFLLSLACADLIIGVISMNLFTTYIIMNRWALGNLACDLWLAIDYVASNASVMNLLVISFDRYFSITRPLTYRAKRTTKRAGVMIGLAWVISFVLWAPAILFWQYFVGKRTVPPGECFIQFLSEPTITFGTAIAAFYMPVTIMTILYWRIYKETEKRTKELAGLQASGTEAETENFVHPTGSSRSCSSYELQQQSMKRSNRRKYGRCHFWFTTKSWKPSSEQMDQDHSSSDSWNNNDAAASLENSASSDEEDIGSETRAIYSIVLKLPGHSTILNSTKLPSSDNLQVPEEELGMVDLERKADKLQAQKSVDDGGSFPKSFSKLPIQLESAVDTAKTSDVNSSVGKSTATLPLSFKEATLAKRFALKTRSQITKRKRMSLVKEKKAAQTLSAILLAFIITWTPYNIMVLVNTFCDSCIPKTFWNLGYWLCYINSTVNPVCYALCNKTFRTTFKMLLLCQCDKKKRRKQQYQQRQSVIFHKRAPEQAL
- RUN_DESCRIPTION: biochemical
- Assay type: binding
- CONDITION: read-out: % INHIBITION concentration: 1.00E−07 M
Counter-ions that a name gives are not always drawn.
MEASUREMENT_LABEL: inhibition at 0.1 µM (%)
Give bare numbers, in %.

{"columns": ["COMPOUND", "TEST_TARGET", "inhibition at 0.1 µM (%)"],
 "data": [
  ["O=C(O[C@H]1C[N+]2(CCCOc3ccccc3)CCC1CC2)[C@](O)(c1ccco1)C1CCCC1 [Example 64, trifluoroacetate]", "human muscarinic receptors M3 (Homo sapiens, UniProt P20309)", 78.6]
]}

Please give inhibition at 0.1 µM, item by item, for the list that follows.
1. O=C(O[C@H]1C[N+]2(CCc3ccccc3)CCC1CC2)[C@](O)(c1cccs1)C1CCCCC1 [Example 89, trifluoroacetate]
2. O=C(O[C@H]1C[N+]2(CCc3ccccc3)CCC1CC2)[C@](O)(c1ccco1)C1CCCCC1 [Example 80, trifluoroacetate]
3. O=C(O[C@H]1C[N+]2(CCc3ccccc3)CCC1CC2)[C@](O)(c1ccccc1)C1CCCC1 [Example 83, trifluoroacetate]
4. O=C(O[C@H]1C[N+]2(CCCc3cccs3)CCC1CC2)[C@@](O)(c1ccco1)C1CCCC1 [Example 61, trifluoroacetate]
5. O=C(O[C@H]1C[N+]2(CCCOc3ccccc3)CCC1CC2)[C@](O)(c1ccccc1)C1CCCC1 [Example 82, trifluoroacetate]

Result block:
1. 68.5
2. 72.4
3. 72.7
4. 75.1
5. 70.6

Consider the following items and state reported inhibition at 0.1 µM for each.
1. O=C(O[C@H]1C[N+]2(CCCOc3ccc(F)cc3F)CCC1CC2)[C@](O)(c1cccs1)C1CCCC1 [Example 43, trifluoroacetate]
2. O=C(O[C@H]1C[N+]2(CCCc3ccccc3)CCC1CC2)[C@](O)(c1cccs1)C1CCCC1 [Example 26, trifluoroacetate]
3. CC(C)[N+]1(C)[C@@H]2CC[C@H]1C[C@@H](OC(=O)C(CO)c1ccccc1)C2 (some centres unmarked) [Ipratropium bromide, reference compound]
4. N#Cc1cccc(OCCC[N+]23CCC(CC2)[C@@H](OC(=O)[C@](O)(c2cccs2)C2CCCC2)C3)c1 [Example 34, trifluoroacetate]
5. Cc1ccccc1OCCC[N+]12CCC(CC1)[C@@H](OC(=O)[C@](O)(c1cccs1)C1CCCC1)C2 [Example 33, trifluoroacetate]
6. O=C(O[C@H]1C[N+]2(CCc3ccccc3)CCC1CC2)[C@@](O)(c1cccs1)C1CCCCC1 [Example 92, trifluoroacetate]
7. O=C(O[C@H]1C[N+]2(CCCSc3ccccc3)CCC1CC2)[C@](O)(c1ccccc1)C1CCCC1 [Example 84, trifluoroacetate]

Result block:
[83.4, 75.6, 93.8, 85.3, 72.8, 69.4, 68.3]

Would you mind listing inhibition at 0.1 µM for each of the following compounds?
1. O=C(O[C@H]1C[N+]2(CCc3ccccc3)CCC1CC2)[C@](O)(c1cccs1)C1CCCC1 [Example 25, trifluoroacetate]
2. O=C(O[C@H]1C[N+]2(CCCSc3ccccc3)CCC1CC2)[C@](O)(c1cccs1)C1CCCC1 [Example 37, trifluoroacetate]
3. O=C(O[C@H]1C[N+]2(CCCc3ccccc3)CCC1CC2)[C@](O)(c1ccco1)C1CCCCC1 [Example 81, trifluoroacetate]
4. O=C(O[C@H]1C[N+]2(CCCOc3ccccc3)CCC1CC2)[C@](O)(c1cccs1)C1CCCC1 [Example 22]
5. O=C(O[C@H]1C[N+]2(CCCc3cccs3)CCC1CC2)[C@](O)(c1ccccc1)C1CCCCC1 [Example 69, trifluoroacetate]

Result block:
1: 76.1; 2: 88.1; 3: 70.1; 4: 81.5; 5: 70.8

Give inhibition at 0.1 µM for each of the items listed below.
1. O=C(O[C@H]1C[N+]2(CCCc3ccccc3)CCC1CC2)[C@](O)(c1ccco1)C1CCCC1 [Example 67, trifluoroacetate]
2. CCCCCC(O)(C(=O)O[C@H]1C[N+]2(CCCOc3ccccc3)CCC1CC2)c1cccs1 (some centres unmarked) [Example 16, trifluoroacetate]
3. O=C(O[C@H]1C[N+]2(CCCOc3cccc(O)c3)CCC1CC2)[C@](O)(c1cccs1)C1CCCC1 [Example 31, trifluoroacetate]
4. C=CCC(O)(C(=O)O[C@H]1C[N+]2(CCCOc3ccccc3)CCC1CC2)c1cccs1 (some centres unmarked) [Example 13]
5. O=C(O[C@H]1C[N+]2(CCCc3cccs3)CCC1CC2)[C@@](O)(c1cccs1)C1CCCC1 [Example 54, trifluoroacetate]
6. O=C(O[C@H]1C[N+]2(CCc3ccccc3)CCC1CC2)[C@@](O)(c1ccccc1)C1CCCC1 [Example 86, trifluoroacetate]
7. O=C(O[C@H]1C[N+]2(CCCOc3ccc(F)cc3)CCC1CC2)[C@](O)(c1cccs1)C1CCCC1 [Example 28, trifluoroacetate]
8. O=C(O[C@H]1C[N+]2(CCCOc3ccccc3Cl)CCC1CC2)[C@](O)(c1cccs1)C1CCCC1 [Example 40, trifluoroacetate]

Result block:
[75.1, 74.2, 74.3, 76, 72.5, 68.2, 78.3, 86.9]
